Tested On: Solute carrier organic anion transporter family member 1B1 (Homo sapiens, UniProt Q9Y6L6)
Sequence (Q9Y6L6 whole entry): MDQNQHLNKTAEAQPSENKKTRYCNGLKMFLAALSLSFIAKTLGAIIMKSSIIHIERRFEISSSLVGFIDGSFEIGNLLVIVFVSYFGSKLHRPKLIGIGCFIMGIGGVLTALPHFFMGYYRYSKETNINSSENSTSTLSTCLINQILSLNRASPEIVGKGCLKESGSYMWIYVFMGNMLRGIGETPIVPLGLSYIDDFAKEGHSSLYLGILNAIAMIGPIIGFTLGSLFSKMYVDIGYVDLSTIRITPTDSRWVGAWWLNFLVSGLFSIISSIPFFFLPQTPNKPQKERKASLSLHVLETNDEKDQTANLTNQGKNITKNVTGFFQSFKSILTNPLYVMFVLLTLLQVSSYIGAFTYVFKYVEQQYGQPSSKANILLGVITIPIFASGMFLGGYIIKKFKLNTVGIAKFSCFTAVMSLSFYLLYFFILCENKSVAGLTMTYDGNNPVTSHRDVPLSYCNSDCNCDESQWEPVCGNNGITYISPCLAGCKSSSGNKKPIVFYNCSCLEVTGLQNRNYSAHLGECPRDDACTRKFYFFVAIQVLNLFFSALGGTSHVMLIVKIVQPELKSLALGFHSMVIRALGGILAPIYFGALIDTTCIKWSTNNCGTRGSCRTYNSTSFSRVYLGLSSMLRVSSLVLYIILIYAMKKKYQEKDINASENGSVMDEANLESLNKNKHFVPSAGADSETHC
Protocol Conditions: chinese hamster, cho, 10 µM
residual activity values for the molecules below.
Response body: numeric value in %, unit text excluded.

Molecule	Value Unit	residual activity
CCOC(=O)[C@H](CCc1ccccc1)N[C@@H](C)C(=O)N1CCC[C@H]1C(=O)O.O=C(O)/C=C\C(=O)O [ENALAPRIL MALEATE]	%	190.1
C[N+](C)(C)CCOC(N)=O.[Cl-]	%	120.9
O=C(O)c1cc(=O)c2ccccc2o1	%	133.6
OCc1c[nH]c2ccccc12	%	88.32

Now consider a different molecule.
Recorded residual activity of CC(=O)/C(=C\c1ccccc1)CC(=O)O , please.
134.7
